# Tested on: HepG2 cell line
# assayNotes: In vitro toxicity study on HepG2 cell line (resazurin, viability and IC50)
# Format: cell-based, human
# measurementContext: HepG2 cells, 50 μM lipid, 48 h post-treatment, resazurin, relative to ethanol vehicle controls
resultType: Viability (%) at different lipid concentrations, mean

{"columns": ["compound", "assayTarget", "observedResult"],
 "data": [
  ["CCCCCCCC/C=C\\CCCCCCCCOC(=O)C(C)(C)CC(OCCCCCCCC/C=C\\CCCCCCCC)O[Si](C)(C)OCCCCCCN(C)CCO (stereo not shown)", "HepG2 cell line", "112.1%"],
  ["CCCCC/C=C\\C/C=C\\CCCCCCCCOC(CCCCCCC/C=C\\C/C=C\\CCCCC)O[Si](C)(C)OCCCCCCN(CCO)CCO (stereo not shown)", "HepG2 cell line", "97.8%"],
  ["CCCCC/C=C\\C/C=C\\CCCCCCCCOC(CCCCCCC/C=C\\CCCCCCCC)O[Si](C)(C)OCCCCCCN(CCO)CCO (stereo not shown)", "HepG2 cell line", "97.4%"],
  ["CCCCCCCC/C=C\\CCCCCCCCOC(=O)C(C)(C)CCC(OCCCCCCCC/C=C\\CCCCCCCC)O[Si](C)(C)OCCCCCCN1CCOCC1 (stereo not shown)", "HepG2 cell line", "99.7%"],
  ["CCCCC/C=C\\C/C=C\\CCCCCCCCOC(CCCCCCC/C=C\\C/C=C\\CCCCC)O[Si](C)(C)OCCCCCCN1CCCC1CO (stereo not shown)", "HepG2 cell line", "98.3%"],
  ["CCCCCCCC/C=C\\CCCCCCCCOC(=O)C(C)(C)CC(OCCCCCCCC/C=C\\CCCCCCCC)O[Si](C)(C)OCCCCCCN(C)CCCCO (stereo not shown)", "HepG2 cell line", "112.4%"],
  ["CCCCC/C=C\\C/C=C\\CCCCCCCCOC(CCCCCCCCCCCCCCC)O[Si](C)(C)OCCCCCCN(CCO)CCO (stereo not shown)", "HepG2 cell line", "111.9%"]
]}

* * *

# Test system: HepG2 cell line
# assayNotes: In vitro toxicity study on HepG2 cell line (resazurin, viability and IC50)
# Type: cell-based, human
# measurementContext: HepG2 cells, 12.5 μM lipid, 48 h post-treatment, resazurin, relative to ethanol vehicle controls
resultType: Viability (%) at different lipid concentrations, mean

{"columns": ["compound", "assayTarget", "measurementUnits", "observedResult"],
 "data": [
  ["CCCCC/C=C\\C/C=C\\CCCCCCCCOC(CCCCCN(C)CC(O)CO)O[Si](C)(C)OCCCCCCCC/C=C\\C/C=C\\CCCCC (stereo not drawn)", "HepG2 cell line", "%", 97.9],
  ["CCCCCCCC/C=C\\CCCCCCCCOC(=O)C(C)(C)CC(OCCCCCCCC/C=C\\CCCCCCCC)O[Si](C)(C)OCCCCCCN1CCOCC1 (stereo not drawn)", "HepG2 cell line", "%", 101.0],
  ["CCCCCCCC/C=C\\CCCCCCCCOC(=O)C(C)(C)CC(OCCCCCCCC/C=C\\CCCCCCCC)O[Si](C)(C)OCCCCCCN(CCCO)CCCO (stereo not drawn)", "HepG2 cell line", "%", 112.0],
  ["CCCCCCCC/C=C\\CCCCCCCCOC(CCCCCCC/C=C\\CCCCCCCC)O[Si](C)(C)OCCCCCCN(CCO)CCO (stereo not drawn)", "HepG2 cell line", "%", 98.6],
  ["CCCCCCCC/C=C\\CCCCCCCC(OCCCCCCCCCCCC1CCCCC1)O[Si](C)(C)OCCCCCCN(CCO)CCO (stereo not drawn)", "HepG2 cell line", "%", 100.8],
  ["CCCCC/C=C\\C/C=C\\CCCCCCCCOC(CCCCCCC/C=C\\C/C=C\\CCCCC)O[Si](C)(C)OCCCCCCN(CCO)CCN(CCO)CCCCCCO[Si](C)(C)OC(CCCCCCC/C=C\\C/C=C\\CCCCC)OCCCCCCCC/C=C\\C/C=C\\CCCCC (stereo not drawn)", "HepG2 cell line", "%", 102.5]
]}

* * *

# assayNotes: LNP size, PDI and zeta potential by Dynamic Light Scattering (Method A)
# Assay type: physicochemical
# measurementContext: LNP formulated with the lipid, DLS
Mark 1 (yes) for reported Zeta potential (mV) of -10 mV or greater; mark 0 (no) for anything smaller.

{"columns": ["compound", "qualitativeLabel"],
 "data": [
  ["CCCCCCCC/C=C\\CCCCCCCCOC(CC[C@@H](C)C1CCC2C3CCC4C[C@H](OC)CC[C@]4(C)C3CC[C@@]21C)O[Si](C)(C)OCCCCCCN(CCO)CCO (some centres unmarked) [Example 51]", "1 (yes)"],
  ["CCCCC/C=C\\C/C=C\\CCCCCCCCOC(CCCCCCC/C=C\\C/C=C\\CCCCC)O[Si](C)(C)OCCCCCCN(CCO)CCN(CCO)CCCCCCO[Si](C)(C)OC(CCCCCCC/C=C\\C/C=C\\CCCCC)OCCCCCCCC/C=C\\C/C=C\\CCCCC (centres unmarked) [Example 71]", "0 (no)"],
  ["CCCCC/C=C\\C/C=C\\CCCCCCCCO[Si](C)(C)OC(CCCCCCC/C=C\\C/C=C\\CCCCC)OCCCCCCN(CCO)CCO (centres unmarked) [Example 40]", "1 (yes)"],
  ["CCCCC/C=C\\C/C=C\\CCCCCCCCOC(CCCCCCC/C=C\\C/C=C\\CCCCC)O[Si](C)(C)OCCCCCCN1CCN(CCCCCCO[Si](C)(C)OC(CCCCCCC/C=C\\C/C=C\\CCCCC)OCCCCCCCC/C=C\\C/C=C\\CCCCC)CC1 (centres unmarked) [Example 70]", "0 (no)"],
  ["CCCCCCCC/C=C\\CCCCCCCC(OCC(CCCCCC)CCCCCCCC)O[Si](C)(C)OCCCCCCN(CCO)CCO (centres unmarked) [Example 50]", "0 (no)"]
]}

* * *

# assayNotes: LNP size, PDI and zeta potential by Dynamic Light Scattering (Method A)
# Format: physicochemical
# measurementContext: LNP formulated with the lipid, DLS
resultType: PDI

{"columns": ["compound", "resultType", "observedResult"],
 "data": [
  ["CCCCCCCC/C=C\\CCCCCCCCOC(=O)C(C)(C)CC(OCCCCCCCC/C=C\\CCCCCCCC)O[Si](C)(C)OCCCCCCN(CCCCO)CCCCO (centres unmarked)", "PDI", 0.25],
  ["CCCCCCCC/C=C\\CCCCCCCC(OCC(CCCCCCCC)SCCCCCCCCCC)O[Si](C)(C)OCCCCCCN(CCO)CCO (centres unmarked)", "PDI", 0.16],
  ["CCCCC/C=C\\C/C=C\\CCCCCCCCOC(CCCCCCC/C=C\\C/C=C\\CCCCC)O[Si](C)(C)OCCCCCCN(C)[C@H](CO)Cc1ccccc1 (some centres unmarked)", "PDI", 0.05],
  ["CCCCC/C=C\\C/C=C\\CCCCCCCCOC(CCCCCCC/C=C\\C/C=C\\CCCCC)O[Si](C)(C)OCCCCCCN1CCCCC1CO (centres unmarked)", "PDI", 0.098],
  ["CCCCCCCC/C=C\\CCCCCCCCOC(CCCCCCC/C=C\\CCCCCCCC)O[Si](C)(C)OCCCCCCN(C)[C@H](CO)Cc1ccccc1 (some centres unmarked)", "PDI", 0.10],
  ["CCCCCCCC/C=C\\CCCCCCCCOC(=O)C(C)(C)CC(OCCCCCCCC/C=C\\CCCCCCCC)O[Si](C)(C)OCCCCCCN(CCCO)CCCO (centres unmarked)", "PDI", 0.21],
  ["CCCCCCCC/C=C\\CCCCCCCCOC(=O)C(C)(C)CC(OCCCCCCCC/C=C\\CCCCCCCC)O[Si](C)(C)OCCCCCCN(CCO)CCO (centres unmarked)", "PDI", 0.15],
  ["CCCCCCCC/C=C\\CCCCCCCCOC(CC[C@@H](C)C1CCC2C3CCC4C[C@H](OC)CC[C@]4(C)C3CC[C@@]21C)O[Si](C)(C)OCCCCCCN(CCO)CCO (some centres unmarked)", "PDI", 0.060],
  ["CCCCCCCC/C=C\\CCCCCCCC(OCCCCCCCCCCCC1CCCCC1)O[Si](C)(C)OCCCCCCN(CCO)CCO (centres unmarked)", "PDI", 0.19],
  ["CCCCC/C=C\\C/C=C\\CCCCCCCCOC(CCCCCCC/C=C\\C/C=C\\CCCCC)O[Si](C)(C)OCCCCCCN1CCN(CCCCCCO[Si](C)(C)OC(CCCCCCC/C=C\\C/C=C\\CCCCC)OCCCCCCCC/C=C\\C/C=C\\CCCCC)CC1 (centres unmarked)", "PDI", 0.061],
  ["CCCCCCCC/C=C\\CCCCCCCCOC(=O)C(C)(C)CC(OCCCCCCCC/C=C\\CCCCCCCC)O[Si](C)(C)OCCCCCCN1CCCCC1CO (centres unmarked)", "PDI", 0.12],
  ["CCCCC/C=C\\C/C=C\\CCCCCCCCOC(CCCCCCC/C=C\\C/C=C\\CCCCC)O[Si](C)(C)OCCCCCCN(C)CC(O)CO (centres unmarked)", "PDI", 0.105],
  ["CCCCC/C=C\\C/C=C\\CCCCCCCCOC(CCCCCCC/C=C\\C/C=C\\CCCCC)O[Si](C)(C)OCCCCCCN1CCOCC1 (centres unmarked)", "PDI", 0.441],
  ["CCCCCCCC/C=C\\CCCCCCCC(OCC(CCCCCCCC)SCCCCC)O[Si](C)(C)OCCCCCCN(CCO)CCO (centres unmarked)", "PDI", 0.17],
  ["C#CCN(C)CCCCCCO[Si](C)(C)OC(CC(C)(C)C(=O)OCCCCCCCC/C=C\\CCCCCCCC)OCCCCCCCC/C=C\\CCCCCCCC (centres unmarked)", "PDI", 0.26],
  ["CCCCCCCC/C=C\\CCCCCCCC(OCCCCCCCCCCCCCCCC)O[Si](C)(C)OCCCCCCN(CCO)CCO (centres unmarked)", "PDI", 0.059],
  ["CCCCC/C=C\\C/C=C\\CCCCCCCCOC(CCCCCCC/C=C\\CCCCCCCC)O[Si](C)(C)OCCCCCCN(CCO)CCO (centres unmarked)", "PDI", 0.095],
  ["CCCCC/C=C\\C/C=C\\CCCCCCCCOC(CC[C@@H](C)C1CCC2C3CCC4C[C@H](OC)CC[C@]4(C)C3CC[C@@]21C)O[Si](C)(C)OCCCCCCN(CCO)CCO (some centres unmarked)", "PDI", 0.005],
  ["CCCCC/C=C\\C/C=C\\CCCCCCCCOC(CCCCCCC/C=C\\C/C=C\\CCCCC)O[Si](C)(C)OCCCCCCN(C)CCO (centres unmarked)", "PDI", 0.057],
  ["CCCCCCCC/C=C\\CCCCCCCCOC(=O)C(C)(C)CC(OCCCCCCCC/C=C\\CCCCCCCC)O[Si](C)(C)OCCCCCCN1CCCCC1 (centres unmarked)", "PDI", 0.06],
  ["CCCCCCCC/C=C\\CCCCCCCCOC(CCCCCCC/C=C\\CCCCCCCC)O[Si](C)(C)OCCCCCCN(CCO)CCO (centres unmarked)", "PDI", 0.014],
  ["CCCCC/C=C\\C/C=C\\CCCCCCCCO[Si](C)(C)OC(CCCCCCC/C=C\\CCCCCCCC)OCCCN(C)C (centres unmarked)", "PDI", 0.10],
  ["CCCCC/C=C\\C/C=C\\CCCCCCCCO[Si](C)(C)OC(CCCCCCC/C=C\\C/C=C\\CCCCC)OCCCN(C)C (centres unmarked)", "PDI", 0.11],
  ["CCCCC/C=C\\C/C=C\\CCCCCCCCOC(CCCCCN(CCO)CCO)O[Si](C)(C)OCCCCCCCC/C=C\\C/C=C\\CCCCC (centres unmarked)", "PDI", 0.072],
  ["CCCCC/C=C\\C/C=C\\CCCCCCCCOC(CCCCCCCCCCCCCCC)O[Si](C)(C)OCCCCCCN(CCO)CCO (centres unmarked)", "PDI", 0.006],
  ["CCCCCCCC/C=C\\CCCCCCCCOC(=O)C(C)(C)CC(OCCCCCCCC/C=C\\CCCCCCCC)O[Si](C)(C)OCCCCCCN1CCOCC1 (centres unmarked)", "PDI", 0.1]
]}
